- Tested on: OVCAR-4
- Experiment notes: NCI tumour cell line growth inhibition, 48 h
Active and inactive are the calls of the source. Rule as the data show it: active = GI50 up to about 1.1 µM and inactive = higher.
A collection of compounds and their measured GI50

* CN(C)/C=N/Cc1ccc2c(c1)OCO2 | > 100 µM (inactive)
* O=C(N/N=C\C=C\c1ccc([N+](=O)[O-])o1)C(=O)N/N=C\C=C\c1ccc([N+](=O)[O-])o1 | 34.9 µM (inactive)
* NC(CSS(=O)(=O)c1ccccc1)C(=O)O (stereo not given) | > 10 µM (inactive)
* CC(=O)OCC1OC(n2c3c(c(-c4ccco4)c(C#N)c2=S)CCC3)C(OC(C)=O)C(OC(C)=O)C1OC(C)=O (stereo not given) | 56.8 µM (inactive)
* COc1nc2c(c(=O)n1C)N=C(c1ccccc1)[C@H](C(CC(=O)c1ccccc1)c1ccccc1)C(c1ccccc1)N2 (stereo not given in full) | 20.1 µM (inactive)

Input: Name the recorded GI50 for COc1ccc2nc3cc(Cl)ccc3c(Sc3ccc(N)cc3)c2c1 .
Output: 15.5 µM (inactive)

Input: Also Oc1ccc2ccccc2c1/N=N\c1cccc2ccccc12 ?
Output: > 100 µM (inactive)
